Molecular target: T1, recombinant human IGFBP-3 (human, UniProt P17936 28-291)
T1 construct: mature; Secreted recombinant protein
T1 sequence (P17936 28-291): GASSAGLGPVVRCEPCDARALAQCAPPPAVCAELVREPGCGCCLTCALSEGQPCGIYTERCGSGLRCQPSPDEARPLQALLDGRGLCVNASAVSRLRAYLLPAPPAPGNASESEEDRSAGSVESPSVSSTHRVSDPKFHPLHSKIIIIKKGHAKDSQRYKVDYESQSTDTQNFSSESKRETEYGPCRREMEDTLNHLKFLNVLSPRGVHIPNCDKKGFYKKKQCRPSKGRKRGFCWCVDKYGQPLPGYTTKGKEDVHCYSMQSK
Assay: competitive phage ELISA
pIC50: −log10 of the molar value.
Reported values of pIC50 for individual entries

- binder: "IGF-I S35A displayed on phage (ligand, not shown: large carriers, On phage; G1S-A70V template) SPETLCGAELVDALQFVCGDRGFYFNKPTGYGSSARRAPQTGIVDECCFRSCDLRRLEMYCAPLKPAKSV"
  pIC50: 9.33
- binder: "IGF-I D20A displayed on phage (ligand, On phage; G1S-A70V template; not shown: Display carrier: M13 gene III protein fragment (residues 249-406) and the junction to it) SPETLCGAELVDALQFVCGARGFYFNKPTGYGSSSRRAPQTGIVDECCFRSCDLRRLEMYCAPLKPAKSV"
  pIC50: 8.95
- binder: "IGF-I L54A displayed on phage (ligand, On phage; G1S-A70V template; not shown: Display partner: M13 gene III protein fragment (residues 249-406, mature count) and the junction to it) SPETLCGAELVDALQFVCGDRGFYFNKPTGYGSSSRRAPQTGIVDECCFRSCDARRLEMYCAPLKPAKSV"
  pIC50: 8.74
